system: HOP-92; experiment: NCI tumour cell line growth inhibition, 48 h
Activity calls are given as the source filed them. No stated cut-off is given here; in the data, active = GI50 up to about 1.1 µM and inactive = higher.
Possible outcomes: active, inactive

>  <compound>
O=C(Cn1ccnc1[N+](=O)[O-])NCCO [ETANIDAZOLE]

>  <group>
inactive

$$$$
>  <compound>
Oc1cc(-c2cccc(OC(F)(F)F)c2)nc2cc3c(cc12)OCO3

>  <group>
active

$$$$
>  <compound>
COc1ccc(-n2nnc3c(C#N)c(C)c(-c4ccccc4)n3c2=O)cc1

>  <group>
inactive

$$$$
>  <compound>
CCCCCc1c(CCCC)c(O)nc2nc(NC(=O)CCCC)ccc12

>  <group>
inactive

$$$$
>  <compound>
CC1(C)OC[C@@H]([C@@]2(COC(c3ccccc3)(c3ccccc3)c3ccccc3)CC=CC(=O)O2)O1

>  <group>
inactive

$$$$
>  <compound>
CCOC(=O)C(=Cc1ccccc1Br)C(=O)OCC

>  <group>
inactive

$$$$
>  <compound>
O=C(O)Cc1cc(=O)[nH]c2c1/C(=N/O)CCC2

>  <group>
inactive

$$$$
>  <compound>
Cc1nnc2c3c(-c4ccccc4)c(-c4ccccc4)oc3nc(N(C)C)n12

>  <group>
inactive

$$$$
>  <compound>
CCOP(=O)(OCC)C(Cc1ccc(Cl)cc1)NS(=O)(=O)c1ccc(C)cc1 (stereo not given)

>  <group>
inactive

$$$$
>  <compound>
C=C1CC(Cn2cc(C)c(=O)[nH]c2=O)(c2ccc(Cl)cc2)OC1=O (stereo not given)

>  <group>
active

$$$$
